Data credit: ChEMBL document CHEMBL4610122

Biological target: Bromodomain-containing protein 4 (Homo sapiens, UniProt O60885)
Assay: Inhibition of BRD4 bromodomain 1 (unknown origin) by AlphaScreen displacement assay
Hi there, I'd appreciate the recorded IC50 for every entry that follows.
Give bare numbers, in µM.

These recorded examples may help you get a feel for the data.
* COc1cc(NS(C)(=O)=O)ccc1Nc1ncc2c(n1)N(C)c1ccccc1C(=O)N2C(C)C | 7.49
* COc1cc(C(=O)NC2CCN(C)CC2)ccc1Nc1ncc2c(n1)N(C)c1ccccc1C(=O)N2C | 4.17
* CCN1C(=O)c2ccccc2N(C)c2nc(Nc3ccc(NS(C)(=O)=O)cc3OC)ncc21 | 4.6

Now for a further molecule.
Report IC50 for COc1cc(C(=O)NC2CCN(C)CC2)ccc1Nc1ncc2c(n1)N(C)c1ccccc1C(=O)N2CC(F)(F)F tested on Bromodomain-containing protein 4 (Homo sapiens, UniProt O60885).
1.57
